# Experiment Notes: in vitro
# Test Settings: human, Caco-2
Measurement Label: Papp A→B (×10⁻⁶ cm/s)
Enter your answer as a number in ×10⁻⁶ cm/s; do not include the unit.

For this compound ( `CSc1ccccc1[C@H]1CCCN1C(=O)CNC(=O)N(Cc1ccc2c(c1)[C@H]1C[C@@H](N2)[C@H](O)CO1)Cc1nnn(C)n1` ), measured Papp A→B is 0.03

====

# Experiment Notes: Intrinsic clearance, rat liver microsomes
# Assay type: in vitro ADME
# Test Settings: Table 3, read-out: Rat Liver microsomes CL
Measurement Label: microsomal CLint (µL/min/mg)
Enter your answer as a number in µL/min/mg; do not include the unit.

Examples from the recorded data:
> print(dat)
                            compound.smiles  result.number
1  CSc1ccccc1[C@H]1CCCN1C(=O)CNC(=O)N(Cc1cnc(N)nc1)Cc1ncc(C)s1            449
2  CSc1ccccc1[C@H]1CCCN1C(=O)CNC(=O)N(Cc1ccc(N)c(Cl)c1)Cc1nnn(C)n1            352
3  CSc1ccccc1[C@H]1CCCN1C(=O)CNC(=O)N(Cc1ccc2c(c1)[C@H]1C[C@@H](N2)[C@H](O)CO1)Cc1nnn(C)n1            137

The record that follows has no microsomal CLint shown yet.
For this compound ( `Cn1nnc(CN(Cc2ccc(N)c(Cl)c2)C(=O)NCC(=O)N2CCC[C@@H]2c2ccccc2Br)n1` ), measured microsomal CLint is 238

====

# Experiment Notes: Caco-2 permeability
# Test Settings: human, Caco-2
Measurement Label: efflux ratio
Lab note: jot down the number only; don't add units.

Examples from the recorded data:
> print(dat)
                            compound.smiles  measurement.label  result.number
1  Cn1nnc(CN(Cc2ccc(N)c(Cl)c2)C(=O)NCC(=O)N2CCC[C@@H]2c2ccccc2Br)n1       efflux ratio            1.9
2  CSc1ccccc1[C@H]1CCCN1C(=O)CNC(=O)N(Cc1cnc(N)nc1)Cc1ncc(C)s1       efflux ratio             16

The record that follows has no efflux ratio shown yet.
For this compound ( `CSc1ccccc1[C@H]1CCCN1C(=O)CNC(=O)N(Cc1ccc(N)c(Cl)c1)Cc1nnn(C)n1` ), measured efflux ratio is 2.8

====

Documented solubility at 24 h across a set of molecules
# Experiment Notes: Aqueous kinetic solubility, shake-flask
# Test Settings: PBS, pH 7.4

Examples from the recorded data:
> print(dat)
                            compound.smiles   measurement.label    result
1  CSc1ccccc1[C@H]1CCCN1C(=O)CNC(=O)N(Cc1ccc(N)c(Cl)c1)Cc1nnn(C)n1  solubility at 24 h  > 200 µM
2  CSc1ccccc1[C@H]1CCCN1C(=O)CNC(=O)N(Cc1cnc(N)nc1)Cc1ncc(C)s1  solubility at 24 h  > 200 µM

The record that follows has no solubility at 24 h shown yet.
For this molecule ( `Cn1nnc(CN(Cc2ccc(N)c(Cl)c2)C(=O)NCC(=O)N2CCC[C@@H]2c2ccccc2Br)n1` ), measured solubility at 24 h is > 200 µM

====

# Experiment Notes: Human plasma protein binding
# Assay type: in vitro ADME
# Test Settings: read-out: Human PPB free
Measurement Label: fraction unbound at 10 µM
Lab note: jot down the number only; don't add units.

For this molecule ( `CSc1ccccc1[C@H]1CCCN1C(=O)CNC(=O)N(Cc1ccc(N)c(Cl)c1)Cc1nnn(C)n1` ), measured fraction unbound at 10 µM is 0.02

FYI, the data here is from paper PMC11956012.
